- Tested on: HCC 67-1
- Assay Text: IC50 in PDO line
- Format: cell-based
- Condition Notes: Homo sapiens
pIC50: −log10 of the molar value.
Readout Name: pIC50

>>> quantitative_readout("COC(=O)C[C@](O)(CCCC(C)(C)O)C(=O)O[C@@H]1C(OC)=C[C@]23CCCN2CCc2cc4c(cc2[C@H]13)OCO4 [omacetaxine, omacetaxine mepusuccinate]")
8.40

====

- Test system: HCC71-3
- Assay Text: IC50 in PDO line
- Type: cell-based
- Condition Notes: Homo sapiens
- Experimental: The inventors tested omacetaxine at decreasing concentrations (10 μM, 1 μM, 100 nM, 10 nM and 1 nM) to calculate the half-maximal inhibitory concentration (IC50). […] The IC50 value for each of the 40 HCC PDO lines can be found in Table 2.
pIC50: −log10 of the molar value.
Readout Name: pIC50

>>> quantitative_readout("COC(=O)C[C@](O)(CCCC(C)(C)O)C(=O)O[C@@H]1C(OC)=C[C@]23CCCN2CCc2cc4c(cc2[C@H]13)OCO4 [omacetaxine, omacetaxine mepusuccinate]")
8.82

====

- Test system: HCC 34-3
- Assay Text: IC50 in PDO line
- Assay type: cell-based
- Condition Notes: Homo sapiens
- Protocol: The inventors tested omacetaxine at decreasing concentrations (10 μM, 1 μM, 100 nM, 10 nM and 1 nM) to calculate the half-maximal inhibitory concentration (IC50). […] The IC50 value for each of the 40 HCC PDO lines can be found in Table 2.
Readout Name: IC50 (nM)

>>> quantitative_readout("COC(=O)C[C@](O)(CCCC(C)(C)O)C(=O)O[C@@H]1C(OC)=C[C@]23CCCN2CCc2cc4c(cc2[C@H]13)OCO4 [omacetaxine, omacetaxine mepusuccinate]")
37.7

====

- Tested on: HCC 38
- Assay Text: IC50 in PDO line
- Format: cell-based
- Condition Notes: Homo sapiens
pIC50: −log10 of the molar value.
Readout Name: pIC50

>>> quantitative_readout("COC(=O)C[C@](O)(CCCC(C)(C)O)C(=O)O[C@@H]1C(OC)=C[C@]23CCCN2CCc2cc4c(cc2[C@H]13)OCO4 [omacetaxine, omacetaxine mepusuccinate]")
7.73

====

- Test system: HCC 26-3
- Assay Text: IC50 in PDO line
- Type: cell-based
- Condition Notes: Homo sapiens
pIC50: −log10 of the molar value.
Readout Name: pIC50

>>> quantitative_readout("COC(=O)C[C@](O)(CCCC(C)(C)O)C(=O)O[C@@H]1C(OC)=C[C@]23CCCN2CCc2cc4c(cc2[C@H]13)OCO4 [omacetaxine, omacetaxine mepusuccinate]")
7.56

====

- System: HCC 26-6
- Assay Text: IC50 in PDO line
- Format: cell-based
- Condition Notes: Homo sapiens
Readout Name: IC50 (nM)

>>> quantitative_readout("COC(=O)C[C@](O)(CCCC(C)(C)O)C(=O)O[C@@H]1C(OC)=C[C@]23CCCN2CCc2cc4c(cc2[C@H]13)OCO4 [omacetaxine, omacetaxine mepusuccinate]")
80.8

====

- Tested on: HCC 25-1
- Assay Text: IC50 in PDO line
- Format: cell-based
- Condition Notes: Homo sapiens
pIC50: −log10 of the molar value.
Readout Name: pIC50

>>> quantitative_readout("COC(=O)C[C@](O)(CCCC(C)(C)O)C(=O)O[C@@H]1C(OC)=C[C@]23CCCN2CCc2cc4c(cc2[C@H]13)OCO4 [omacetaxine, omacetaxine mepusuccinate]")
7.43
